target: Human Aryl Hydrocarbon Receptor (AHR) (Homo sapiens); construct: purchased INDIGO Bioscience IB06001-32; host or cells: AHR Reporter Cell (proprietary kit cells); test: AHR agonist reporter assay in human cell line (INDIGO luciferase reporter); type: cell-based; conditions: reporter cells, 24 hours, value in brackets
endpoint.name: AHR % activation to Tapinarof at 1 μM

INSERT INTO assay_data (compound, result) VALUES
  ('CC(C)c1ncc(-c2cc3ccccc3cn2)cc1O [Compound 97]', '62.6%'),
  ('CC(C)c1ncc(-c2ccc3ccccc3n2)cc1O [Compound 98]', '71.2%'),
  ('CC(C)c1c(O)cc(-c2cc3ccccc3cn2)cc1O [Compound 46]', '95.8%'),
  ('CC(C)c1ncc(/C=C/c2ccc(F)cc2)cc1O [Compound 114]', '88.5%'),
  ('CC(C)c1c(O)cc(-c2nc3ccccc3o2)cc1O [Compound 49]', '104.6%'),
  ('CC(C)c1ncc(-c2nc3ccccc3o2)cc1O [Compound 100]', '49.7%');

----------
target: Human Aryl Hydrocarbon Receptor (AHR) (Homo sapiens, UniProt P35869); construct: purchased INDIGO Bioscience IB06001-32; host or cells: AHR Reporter Cell (proprietary kit cells); assay: AHR agonist reporter assay in human cell line (INDIGO luciferase reporter); assay type: cell-based; conditions: reporter cells, 24 hours incubation, second line of cell; read-out: AHR abEC50;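 note: firefly luciferase luminescence read on a plate reader, values normalized against positive and negative controls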
pEC50: −log10 of the molar value.
Listed here: items and their measured pEC50.
endpoint.name: pEC50

INSERT INTO measurements (molecule, result) VALUES
  ('CC(C)c1ncc(-c2nccc3cccnc23)cc1O', '< 7.00'),
  ('CC(C)c1c(O)cc(-c2cccc3ncccc23)cc1O', '< 7.00'),
  ('CC(C)c1ncc(-c2c(Cl)cc3c(O)ncnc3c2F)cc1O', '< 7.00'),
  ('CC(C)c1c(O)cc(-c2cnc3cccc(O)c3c2)cc1O', '< 7.00'),
  ('CC(C)c1c(O)cc(-c2cnc3c(F)cc(N)cc3c2)cc1O', '< 7.00'),
  ('Cc1cnc2ccc(-c3cc(O)c(C(C)C)c(O)c3)cc2c1', '< 7.00'),
  ('Cc1ccnc2cc(-c3cc(O)c(C(C)C)c(O)c3)ccc12', 8.67),
  ('CC(C)c1c(O)cc(-c2cncc3ccc(F)cc23)cc1O', '< 7.00'),
  ('CC(C)c1ncc(-c2cc(C(F)(F)F)c3cc(F)ccc3n2)cc1O', '< 7.00'),
  ('CC(C)c1ncc(-c2nc3ccccc3o2)cc1N', '< 7.00'),
  ('COc1cc(/C=C/c2ccccc2)cc(O)c1C(C)(C)O', 7.41),
  ('COc1cc(-c2cnc(C(C)C)c(O)c2)cc2cccnc12', '< 7.00');

----------
Molecular target: Human Aryl Hydrocarbon Receptor (AHR) (Homo sapiens, UniProt P35869)
Construct: purchased INDIGO Bioscience IB06001-32; host or cells: AHR Reporter Cell (proprietary kit cells)
Sequence (P35869 11-848): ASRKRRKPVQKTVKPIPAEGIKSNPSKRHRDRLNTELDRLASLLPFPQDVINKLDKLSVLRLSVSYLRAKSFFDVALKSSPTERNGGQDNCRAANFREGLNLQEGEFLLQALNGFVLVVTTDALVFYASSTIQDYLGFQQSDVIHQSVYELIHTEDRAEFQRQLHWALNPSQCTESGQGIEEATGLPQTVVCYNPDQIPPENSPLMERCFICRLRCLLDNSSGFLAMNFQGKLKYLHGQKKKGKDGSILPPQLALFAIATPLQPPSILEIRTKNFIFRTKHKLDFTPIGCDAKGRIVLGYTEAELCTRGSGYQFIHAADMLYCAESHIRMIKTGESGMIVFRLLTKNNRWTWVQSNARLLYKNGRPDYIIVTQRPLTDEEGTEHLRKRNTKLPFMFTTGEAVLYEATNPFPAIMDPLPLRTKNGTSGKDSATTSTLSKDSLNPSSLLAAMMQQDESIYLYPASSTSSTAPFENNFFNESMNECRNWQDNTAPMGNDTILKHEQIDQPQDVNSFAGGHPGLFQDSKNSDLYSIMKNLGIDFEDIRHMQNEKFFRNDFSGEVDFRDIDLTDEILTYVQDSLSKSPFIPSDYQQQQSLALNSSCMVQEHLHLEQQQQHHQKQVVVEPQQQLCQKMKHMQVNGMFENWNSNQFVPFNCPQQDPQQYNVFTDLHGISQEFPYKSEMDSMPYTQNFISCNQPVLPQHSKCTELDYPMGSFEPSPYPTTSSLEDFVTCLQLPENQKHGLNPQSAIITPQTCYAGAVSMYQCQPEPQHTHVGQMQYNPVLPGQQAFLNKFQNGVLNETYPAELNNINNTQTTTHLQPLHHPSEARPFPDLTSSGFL
Assay: AHR agonist reporter assay in human cell line (INDIGO luciferase reporter)
Format: cell-based
Details: reporter cells, 24 hours, value in brackets
endpoint.name: AHR % activation to Tapinarof at 1 μM (%)

INSERT INTO results (molecule, numeric_result) VALUES
  ('CC(C)c1c(O)cc(-c2cnc3ccccc3c2)cc1O', 69.5),
  ('COc1cc(-c2nc3ccccc3o2)cc(O)c1C(C)C', 64.4),
  ('CC(C)c1ncc(-c2ccc3ccccc3n2)cc1N', 16.4),
  ('CC(C)c1c(O)cc(/C=C/c2ccccc2)cc1O [Tapinarof, reference compound]', 100),
  ('CC(C)c1ncc(/C=C/c2ccccc2)cc1O [Compound 103, (E)-2-isopropyl-5-styrylpyridine-3-ol]', 69.5);

Recorded values, source patent US20250136556A1.
